system: TK-10 renal; assay: NCI-60 one-dose screen, 48 h; conditions: 10 µM unless noted
Compounds without any hit were thinned out: in the full panel of roughly 83,000, 20% have a hit. The source made the active and inactive calls. Rule for the calls: active = growth percent below 10; inactive = the rest.
Would you mind answering with one of these outcomes? active, inactive

[
  {
    "COMPOUND": "Cc1ccccc1SSc1ccccc1C",
    "SYSTEM_NAME": "TK-10 renal",
    "CLASS_LABEL": "inactive"
  },
  {
    "COMPOUND": "CCN(CC)CCCN1C(=O)c2c(c(C)c3c(oc4cc(OC)ccc43)c2C)C1=O",
    "SYSTEM_NAME": "TK-10 renal",
    "CLASS_LABEL": "inactive"
  },
  {
    "COMPOUND": "Nc1ccc(/C=N/Nc2ccnc3c(N)cccc23)c2cccnc12",
    "SYSTEM_NAME": "TK-10 renal",
    "CLASS_LABEL": "active"
  },
  {
    "COMPOUND": "O=C(NCCCN1CCCCC1)c1ccc(-c2nc3ccc4[nH]ncc4c3c3c2CCCC3)cc1",
    "SYSTEM_NAME": "TK-10 renal",
    "CLASS_LABEL": "inactive"
  },
  {
    "COMPOUND": "O=C1OCC2=C1C(c1cccc([N+](=O)[O-])c1)c1cc3c(cc1N2CCO)CCC3 (stereo unspecified)",
    "SYSTEM_NAME": "TK-10 renal",
    "CLASS_LABEL": "inactive"
  },
  {
    "COMPOUND": "Cc1ccc(NC(=O)c2sc3nc(C)c(C(=O)c4ccccc4)cc3c2N)cc1",
    "SYSTEM_NAME": "TK-10 renal",
    "CLASS_LABEL": "inactive"
  },
  {
    "COMPOUND": "O=C(Nc1ccccc1C(=O)N/N=C(\\c1ccccc1)c1ccccn1)c1ccccc1",
    "SYSTEM_NAME": "TK-10 renal",
    "CLASS_LABEL": "inactive"
  },
  {
    "COMPOUND": "Nc1ccc(-c2ccc(N)c(Br)c2)cc1Br",
    "SYSTEM_NAME": "TK-10 renal",
    "CLASS_LABEL": "inactive"
  },
  {
    "COMPOUND": "CCOc1ccc(N2C(N)=NC(N)=NC2(C)C)cc1",
    "SYSTEM_NAME": "TK-10 renal",
    "CLASS_LABEL": "inactive"
  },
  {
    "COMPOUND": "C#CCOc1cccc(Nc2ncc3ncn(C4CCN(C(=O)CCl)C4)c3n2)c1 (stereo unspecified)",
    "SYSTEM_NAME": "TK-10 renal",
    "CLASS_LABEL": "active"
  }
]

Write down the call the test reported for this compound. Item: CCCN1C(=O)/C(=c2\sc3n(c2=O)C2C(NN=3)N(CC)C(=O)N2CC)c2ccccc21 (stereo unspecified)
inactive

----------
# growth per record follows
Test system: T-47D breast
Test: NCI-60 one-dose screen, 48 h (100 = growth as untreated, 0 = no growth, -100 = all killed)
Conditions: 10 µM unless noted
Procedure: Growth inhibition of the T-47D human tumor cell line is measured as a screen for anti-cancer activity. Cells are grown in 96 well plates and exposed to the test compound for 48 hours. Compounds are tested at a single concentration, which is 10^-5 M for most compounds. The reported endpoint is percent growth (GI% or GIPRCNT), where numbers from 0 - 100% represent growth inhibition, and numbers from -100% - 0 represent cell death. For example, a value of 40 represents 60% growth inhibition. […]
Compounds without any hit were thinned out: in the full panel of roughly 83,000, 20% have a hit.
Numeric answer only, unit % assumed.

Solved cases (10 shown):
[
  {
    "COMPOUND": "COc1ccc(C2Nc3nc(SC)nc(N)c3N=C3c4ccccc4CCC32)cc1 (centres undefined)",
    "READOUT_UNIT": "%",
    "growth": 80
  },
  {
    "COMPOUND": "CCCn1nc(C(=O)N2CCCCC2)c2c1CCC(N1CCC(c3ccncc3)CC1)C2 (centres undefined)",
    "READOUT_UNIT": "%",
    "growth": 99.5
  },
  {
    "COMPOUND": "OB(O)c1ccsc1-c1nc2ccc3[nH]ncc3c2c2c1CCCC2",
    "READOUT_UNIT": "%",
    "growth": 53.5
  },
  {
    "COMPOUND": "CN(C)C(=O)c1cc2cnc(Nc3ccc(-c4csc5c(=S)cc(N6CCOCC6)oc45)cc3)nc2n1C1CCCC1",
    "READOUT_UNIT": "%",
    "growth": -3.44
  },
  {
    "COMPOUND": "N#Cc1ccccc1OCC(=O)Nc1nc2c(s1)COc1ccccc1-2",
    "READOUT_UNIT": "%",
    "growth": 86.2
  },
  {
    "COMPOUND": "COc1ccccc1/C=C1\\COc2ccc(O)c(O)c2C1=O",
    "READOUT_UNIT": "%",
    "growth": 11.6
  },
  {
    "COMPOUND": "COc1cc2nc3cc([N+](=O)[O-])ccc3c(NCCNCC(C)(C)O)c2cc1OC",
    "READOUT_UNIT": "%",
    "growth": -3.16
  },
  {
    "COMPOUND": "O=C(c1ccc(Nc2nccc(NCCCNc3ccnc4cc(Cl)ccc34)n2)cc1)N1CCCCC1",
    "READOUT_UNIT": "%",
    "growth": 54.3
  },
  {
    "COMPOUND": "Cn1ccnc1CN1CCSC(C(=O)Nc2ccccc2)C1 (centres undefined)",
    "READOUT_UNIT": "%",
    "growth": 90.7
  },
  {
    "COMPOUND": "O=C(CCN1CCOCC1)Nc1cccc(-n2cc(-c3ccncc3)c(-c3ccc(Cl)c(O)c3)n2)c1",
    "READOUT_UNIT": "%",
    "growth": 38.3
  }
]

# query: growth of entry COC1/C=C/OC2(C)Oc3c(C)c(O)c4c(O)c(c(C=NOC(c5ccccc5)c5ccccc5)c(O)c4c3C2=O)NC(=O)/C(C)=C/C=C/C(C)C(O)C(C)C(O)C(C)C(OC(C)=O)C1C (centres undefined)
-82.7

Another: "NC(N)=NC(N)=NCCCc1ccco1"
106

Every entry's value here was drawn from PubChem BioAssay (NCI).
